Where do these numbers come from? They come from patent US12570642B2.

ASSAY SYSTEM: GLP-1R (Homo sapiens, UniProt P43220)
Sequence (P43220 24-463): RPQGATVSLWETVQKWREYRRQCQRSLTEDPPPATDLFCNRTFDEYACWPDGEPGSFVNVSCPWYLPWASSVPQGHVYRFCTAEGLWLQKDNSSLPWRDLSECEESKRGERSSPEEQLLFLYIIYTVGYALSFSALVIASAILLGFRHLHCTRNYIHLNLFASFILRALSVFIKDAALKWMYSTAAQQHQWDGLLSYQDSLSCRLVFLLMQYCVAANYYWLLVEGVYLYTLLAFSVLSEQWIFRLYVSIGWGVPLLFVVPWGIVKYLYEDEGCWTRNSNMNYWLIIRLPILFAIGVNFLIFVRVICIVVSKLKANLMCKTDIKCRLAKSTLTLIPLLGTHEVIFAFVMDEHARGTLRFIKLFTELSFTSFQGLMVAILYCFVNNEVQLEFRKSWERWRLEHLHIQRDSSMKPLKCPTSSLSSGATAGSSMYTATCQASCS
TEST: GLP-1R Activation - cAMP Assay
Type: cell-based
ASSAY CONDITIONS: cAMP increase in CHO cells stably expressing GLP-1R; each compound run on one of the two cAMP assays (Assay 1 or Assay 2, not specified)
Method: GLP-1R Activation—cAMP Assay 1 GLP-1R activation by compounds of the present disclosure were quantified by measuring cAMP increase in CHO cells stably expressing GLP-1R (MultiSpan product #C1267-1a). […] The tested GLP-1 compound was added to the cells in a 10-point dose response followed by a 30 minutes incubation at 37° C., 5% CO2. cAMP concentration increase was then detected using Cisbio's cAMP Gs Dynamic Kit (product #62AM4PEC) according to the manufacturer's protocol. […]
ASSAY ENDPOINT: EC50 (nM)

>>> print(df.to_string())
                                    compound                           assay_system  result
 0  COc1cc(Cl)ncc1COc1nc(-c2cc(Cl)c(Cc3nc4ccc(C(=O)O)cc4n3[C@@H]3COCC3(C)C)cc2C)ccc1F  GLP-1R (Homo sapiens, UniProt P43220)   0.734
 1  CC1(C)COCC1n1c(Cc2cc(F)c(-c3cccc(OCc4cnc(Cl)cc4F)n3)cc2F)nc2ccc(C(=O)O)cc21 (stereo not shown)  GLP-1R (Homo sapiens, UniProt P43220)   0.042
 2  CC1(C)COC[C@H]1n1c(Cc2c(F)cc(-c3cccc(OCc4ccc(Cl)cc4)n3)c(F)c2F)nc2c(F)cc(C(=O)O)cc21  GLP-1R (Homo sapiens, UniProt P43220)   0.022
 3  Cc1ncc(-c2ccc(COc3cccc(-c4cc(F)c(Cc5nc6ccc(C(=O)O)cc6n5[C@@H]5COCC5(C)C)cc4F)n3)c(F)c2)s1  GLP-1R (Homo sapiens, UniProt P43220)   0.365
 4  CC1(C)COC[C@H]1n1c(Cc2c(F)cc(-c3cccc(OCc4ccc(Cl)cc4)n3)c(F)c2F)nc2ccc(C(=O)O)cc21  GLP-1R (Homo sapiens, UniProt P43220)   0.065
 5  CC(C)COCCn1c(Cc2cc(F)c(-c3cccc(OCc4cnc(-n5ccnn5)cc4Cl)n3)cc2F)nc2ccc(C(=O)O)cc21  GLP-1R (Homo sapiens, UniProt P43220)   0.987
 6  COCCn1c(Cc2cc(F)c(-c3cccc(OCc4cnc(C(F)F)cn4)n3)cc2F)nc2ccc(C(=O)O)cc21  GLP-1R (Homo sapiens, UniProt P43220)    23.9
 7  CC1(C)COC[C@H]1n1c(Cc2cc(F)c(-c3cccc(OCc4c(F)cc(Cl)cc4F)n3)cc2F)nc2ccc(C(=O)O)cc21 [Example 453]  GLP-1R (Homo sapiens, UniProt P43220)   0.527
 8  CC1(C)COC[C@H]1n1c(Cc2cc(F)c(-c3cccc(OCc4ccc(Cl)cc4Cl)n3)cc2F)nc2ccc(C(=O)O)cc21  GLP-1R (Homo sapiens, UniProt P43220)   0.124
 9  CC1(C)COC[C@H]1n1c(Cc2cc(F)c(-c3ncc(F)c(OCc4ccc(Cl)cc4F)n3)cc2F)nc2ccc(C(=O)O)cc21  GLP-1R (Homo sapiens, UniProt P43220)   0.349
10  CC1(C)COC[C@H]1n1c(Cc2cc(F)c(-c3cccc(OCc4c(F)cc(C#N)cc4F)n3)cc2F)nc2ccc(C(=O)O)cc21  GLP-1R (Homo sapiens, UniProt P43220)   0.278
11  CS(=O)(=O)N1Cc2ccc(COc3cccc(-c4cc(F)c(Cc5nc6ccc(C(=O)O)cc6n5C[C@@H]5CCO5)cc4F)n3)cc2C1  GLP-1R (Homo sapiens, UniProt P43220)   0.102
12  COCCn1c(Cc2c(F)cc(-c3ccc(F)c(OCc4ccc(-n5ccnn5)cc4)n3)c(F)c2F)nc2c(F)cc(C(=O)O)cc21  GLP-1R (Homo sapiens, UniProt P43220)   0.126
